run description: in vitro
measurement conditions: human, hela cells, % viability
Kindly state viability at 28.5 h, 10 µM for each of the entries shown.
Just the number in %, nothing appended.

Incoming: Name the reported viability at 28.5 h, 10 µM value associated with the compound CC[C@@H](Cn1ncc2ccccc2c1=O)NC(=O)C1CC1 [CBK282385]
Outgoing: 88.3

Incoming: Looking for the measured viability at 28.5 h, 10 µM of COc1cccc(CC(=O)N2CCCC2c2cc(Nc3nc(C)cc(C)n3)cc(C)n2)c1 (stereo not drawn) [CBK285999] , can you help?
Outgoing: 90.5

Incoming: // returns reported viability at 28.5 h, 10 µM for input COc1cccc(CN2CCC3(CC2)NC(=O)Cc2ccc(C)cc23)c1 [CBK040219]
Outgoing: 88.5
